Biological target: FlhF-His6 (Campylobacter jejuni 81-176?) (UniProt O52908)
Sequence: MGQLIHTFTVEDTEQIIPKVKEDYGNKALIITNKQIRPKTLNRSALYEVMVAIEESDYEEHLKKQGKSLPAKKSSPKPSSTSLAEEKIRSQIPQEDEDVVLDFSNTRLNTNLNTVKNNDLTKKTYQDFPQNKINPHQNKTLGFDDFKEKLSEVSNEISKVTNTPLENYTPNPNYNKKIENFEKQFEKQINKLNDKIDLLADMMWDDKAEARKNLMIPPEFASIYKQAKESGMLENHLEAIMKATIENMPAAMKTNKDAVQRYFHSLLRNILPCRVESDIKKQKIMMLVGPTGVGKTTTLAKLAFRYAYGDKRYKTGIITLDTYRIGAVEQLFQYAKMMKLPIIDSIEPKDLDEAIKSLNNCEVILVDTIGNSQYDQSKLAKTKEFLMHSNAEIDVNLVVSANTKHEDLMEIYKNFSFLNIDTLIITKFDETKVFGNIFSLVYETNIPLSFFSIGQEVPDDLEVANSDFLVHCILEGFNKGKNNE
Experiment: EMSA
test readout: binding

TGCCTGCAGGTCGACGATAAGAAATTTGGATCAACTAGCTTAAGCTTTTACGCTTCTTAACTTACTTGGAACACTTCTTGCTTGATCTATCATCAACAATAGATTAAAGGAAGAATCCA (double strand) [PflgI fragment 4]: binds
TTCTTTGACTTTTTGAAAATTTTGGATTTTTTCGGGAGTTTTTATGGTTGAGTGGTGTTCAAAAATGATTAAATTTAAAGTCTTTAAATCTAAATTTTCTATCGTCGACCTGCAGGCA (double strand) [PflgI fragment 6]: no binding
TTTAAATCCTTTTAAATAATTTCAAACTCATCCATGAGCTTGTTAAATGCTATATCGTTACTTTTTTTAAAAATTTATACCTTAAACTAAAAAATTATAAATATCGCATTTTAATTGGAATCTGCAAATAAAAATTTCAAGCCACTGTTTATAAAATGTCAAGTATATTAATAAATACTCTCTTTCATCTTCAATTATCGTCGACCTGCAGGCA (double strand) [flaA promoter]: no binding
TGCCTGCAGGTCGACGATCAACCATAAAAACTCCCGAAAAAATCCAAAATTTTCAAAAAGTCAAAGAAAAGAAATTTGGATCAACTAGCTTAAGCTTTTACGCTTCTTAACTTACTTGGAACACTTCTTGCTTGATCTATCATCAACAATAGATTAAAGGAAGAATCCA (double strand) [PflgI fragment 2]: binds
TGGATTCTTCCTTTAATCTATTGTTGATGATAGATCAAGCAAGAAGTGTTCCAAGTAAGTTAAGAAGCGTAAAAGCTTAAGCTAGTTGATCCAAATTTCTTTTCTTTGACTTTTTGAAAATTTTGGATCGTCGACCTGCAGGCA (double strand) [PflgI fragment 3]: binds

Lookup: I have this sequence here, TGCCTGCAGGTCGACGATACCAGTTTCACCACTCGGGCTCATTTTTAAGATTTAAAGCTAAAATTATACTTTTTTAGGCTAAAAAATAACTTTAAAAATAAAAAGTATTTTCAAAAAGACGATATAAAATTATATAATTTAAATTTTTGGAACAGTTATTGCTTTTGTTTATTAGCAATATTTGAAAAGATTTTAACTTTAATACTTTAGAGGAAA (double strand) [flgL promoter] , and I need its recorded binding.
Found: no binding

Lookup: Using the record for TGCCTGCAGGTCGACGATAGAAAATTTAGATTTAAAGACTTTAAATTTAATCATTTTTGAACACCACTCAACCATAAAAACTCCCGAAAAAATCCAAAATTTTCAAAAAGTCAAAGAAAAGAAATTTGGATCAACTAGCTTAAGCTTTTACGCTTCTTAACTTACTTGGAACACTTCTTGCTTGATCTATCATCAACAATAGATTAAAGGAAGAATCCA (double strand) [flgI promoter (PflgI, 201 bp)] , report its binding.
Found: binds

Lookup: I'd like to know its binding. The sequence in question is ATAACGCCATTAATCCCCACTACACCACTTTTACACATATCTTCAGAAATAGCTCTTCTTTTCGTGATATTAACTACATTTAAAAATTTATCTACTCTCATAAAAGCAATTTTAGCAAAAAAAATCAATTTTTGGAACAAAATTTGCTTATGCCTTTGCTTTATTTTTTAAGAAAATAGCAAGTAAAAACTTTTCTTTAATGAAATTTGGATACAATTTTACAATTTTCAAATCTATTTTAACAAAGGATATCGTCGACCTGCAGGCA (double strand) [rpoN promoter]
Found: no binding

Lookup: Would you kindly share the measured binding for AATTCATCCTAAGCCTTTTAAAAAATTTCTGCTATGGTATCCAATTTGCGCTTAATTTTGAATTTACTTTTTTTTAAGTATAATAAATTATCGCATTTTGTTCGCCAAATTCCACGGTAAAACGCAAGGGTAAAATTTTGACATAAGTTTCGCTTTGGGCATGTAATAAGTCAGTATTAACAATATCCTTAACACTGATTCTAGCTCCATCGTCGACCTGCAGGCA (double strand) [flgR promoter] ?
Found: no binding

Lookup: Give the measured binding of CTTTTAAATCCTTTCAAAATATTGCATCGAAAAGATTAAAGCAAGAAGTGTTCCAAGTTTTAATTTGATTAAAAATTTTAAAGCTTATAAATAAAAAGCCTAGTATTTAAACTAGGCTTGGATTTGTATAAATTGCAGCATTCTTAAAAGAATGTAAAGTGATTTTAAGATTTAACTATTGTAATCGTCGACCTGCAGGCA (double strand) [flaB promoter] .
Found: no binding

Lookup: Recorded binding for TGCCTGCAGGTCGACGATTGCAGATGCAAACATTAAAAATCCTTTAAATTTAGAATTCTTAGGTCATTTAAGCGCTTCTAAAGATGTAAGTGGTAGTATTAAAAAAAGAACTTTATTTAGCGATGAAAACACAGCCTCAAGTGATGAGATTAAAGCCCTAGCTTCCAAGCTTTTATATAGATTGGAACGGAAAGTGCTTGATA (double strand) [fliA promoter] , please?
Found: binds

Lookup: Which measured binding value corresponds to TCATTTATCATTCCTCTAATAAAATCTTAAAATCATTCAAATCAAGTAAAAGCAAATTCTGTTCGCATATTTTATCAAATTCCTTGCTAAAACCATTTTTTGAGATTATAATGTAATAATTTGGAGCCAAATTTAAAGACTTTGCTTTTGATTTTAAAAGATTTAAAATATTTTTACAAATTTTTTTATTTTATCGTCGACCTGCAGGCA (double strand) [flgS promoter] ?
Found: binds
